Known EC50 (read off the curve) of a selection of binders
- tgt: canine serum albumin (canine, UniProt P49822 25-608)
- Sequence (P49822 25-608 limits assumed): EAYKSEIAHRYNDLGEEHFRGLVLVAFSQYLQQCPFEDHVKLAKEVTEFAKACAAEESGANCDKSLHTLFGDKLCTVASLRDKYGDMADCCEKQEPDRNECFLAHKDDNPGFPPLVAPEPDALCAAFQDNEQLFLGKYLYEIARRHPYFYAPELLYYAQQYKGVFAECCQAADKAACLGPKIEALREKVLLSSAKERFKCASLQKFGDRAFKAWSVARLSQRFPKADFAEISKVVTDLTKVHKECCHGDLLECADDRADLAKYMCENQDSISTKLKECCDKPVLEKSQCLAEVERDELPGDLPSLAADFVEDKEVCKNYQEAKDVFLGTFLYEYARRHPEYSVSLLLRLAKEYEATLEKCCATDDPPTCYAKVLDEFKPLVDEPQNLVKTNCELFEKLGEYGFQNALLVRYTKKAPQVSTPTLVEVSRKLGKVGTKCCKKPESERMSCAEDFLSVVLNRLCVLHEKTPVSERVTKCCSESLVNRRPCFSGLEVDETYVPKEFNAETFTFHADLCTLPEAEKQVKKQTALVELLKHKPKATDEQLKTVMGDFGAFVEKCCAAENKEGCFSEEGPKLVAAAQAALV
- assay.summary: binding ELISA on coated albumin, pH 6.0, panel 'Canine SA Binding at pH 6.0'

Asked: Look up EC50 (read off the curve): HSA-36 (designed binder) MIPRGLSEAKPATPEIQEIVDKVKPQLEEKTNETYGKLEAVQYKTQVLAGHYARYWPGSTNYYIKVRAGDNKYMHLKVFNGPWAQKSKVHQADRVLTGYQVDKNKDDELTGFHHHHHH
Given back: ~200 nM

Asked: HSA-18 (designed binder, also called HSA-18 monomer) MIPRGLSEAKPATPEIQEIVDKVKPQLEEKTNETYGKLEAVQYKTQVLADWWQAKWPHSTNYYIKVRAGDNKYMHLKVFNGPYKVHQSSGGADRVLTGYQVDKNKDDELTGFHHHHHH ?
Given back: ~10 nM

Asked: What about HSA-41 (designed binder, also called HSA-41 parent; HSA-41 AH parent) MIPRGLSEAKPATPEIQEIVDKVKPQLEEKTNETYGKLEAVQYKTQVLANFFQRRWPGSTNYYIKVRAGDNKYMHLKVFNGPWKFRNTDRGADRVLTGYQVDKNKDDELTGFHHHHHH ?
Given back: ~2 nM

Asked: Next binder up: HSA-31 (designed binder) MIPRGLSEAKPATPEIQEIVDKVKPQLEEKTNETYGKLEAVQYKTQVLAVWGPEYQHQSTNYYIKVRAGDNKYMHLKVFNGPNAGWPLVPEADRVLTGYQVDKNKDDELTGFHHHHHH
Given back: ~2 nM

Asked: How about this binder: HSA-20 (designed binder) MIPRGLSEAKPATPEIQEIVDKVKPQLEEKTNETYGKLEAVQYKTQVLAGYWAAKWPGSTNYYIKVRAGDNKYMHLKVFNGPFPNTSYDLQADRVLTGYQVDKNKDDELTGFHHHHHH
Given back: ~20 nM
